Biological target: HBO-KAT7 (Homo sapiens, UniProt O95251)
Sequence (O95251 with tags, fused parts or gaps): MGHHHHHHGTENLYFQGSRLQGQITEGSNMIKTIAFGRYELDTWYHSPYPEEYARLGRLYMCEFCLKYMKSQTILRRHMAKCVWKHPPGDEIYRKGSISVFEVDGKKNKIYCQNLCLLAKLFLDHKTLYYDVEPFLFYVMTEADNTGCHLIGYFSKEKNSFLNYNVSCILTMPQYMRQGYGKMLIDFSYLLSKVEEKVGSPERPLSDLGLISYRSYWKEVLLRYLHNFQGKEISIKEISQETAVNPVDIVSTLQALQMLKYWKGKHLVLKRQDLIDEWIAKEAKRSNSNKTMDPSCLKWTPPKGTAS
pIC50: −log10 of the molar value.
property.measured: pIC50

INSERT INTO measurements (compound, property_measured, quantitative_result) VALUES
  ('CCc1ccc(OC)c(S(=O)(=O)Nc2noc3c(-c4ccccc4)cccc23)c1 [Example 178]', 'pIC50', 6.32);

[a] CCc1ccc(OC)c(S(=O)(=O)Nc2noc3ccc(Cn4cccn4)cc23)c1 [Example 225]
[b] COc1cccc(OC)c1S(=O)(=O)Nc1noc2cc(-n3nc(C)cc3C)ccc12 [Example 105]
[c] CCc1ccc(OC)c(S(=O)(=O)Nc2noc3c(C4CCCCC4)cccc23)c1 [Example 190]
q: Endpoint returns the given compounds ordered by ascending pIC50. Output the labels ranked as instructed.
a: b, a, c
